- assay: Biodistribution study (SPECT/CT) in HT-29 tumor-bearing mice
- Assay type: in vivo, NMRI nude mice
- test context: female, NMRI nude, mouse, in vivo, iv, total radioactivity, Peak Tumor Uptake
quantity: tissue uptake (%ID/g)

smiles input	reported measurement
CC(C)C[C@@H]1NC(=O)[C@H](Cc2ccc(NC(=O)CCS(N)(=O)=O)cc2)NC(=O)[C@H](CC(=O)O)NC(=O)[C@H]2CCCN2C(=O)[C@H](CCC(=O)O)NC(=O)[C@@H](NC(=O)[C@H](CCC(N)=O)NC(=O)CN2CCN(CC(=O)O)CCN(CC(=O)O)CCN(CC(=O)O)CC2)CSCc2cccc(c2)CSC[C@@H](C(N)=O)NC(=O)[C@H](CO)NC(=O)[C@H](Cc2c[nH]c3ccccc23)NC(=O)[C@H]([C@@H](C)O)NC1=O	3.81

###

// values below are reported IC50
- subject of test: CAIX-expressing human HT-29 colorectal cancer cells (Homo sapiens, UniProt Q16790)
- Construct: CAIX-expressing human HT-29 colorectal cancer cells; host or cells: HT-29 human colorectal cancer cells
- assay: FACS binding assay (IC50 determination, competition with tracer 3BP-2776 or 3BP-4149)
- test context: FACS competition on HT-29 cells, Tracer ID 3BP-2776 (10 nM, biotin-labeled), 4° C., 1 hour; read-out: pIC50 category (activity) (converted)
Starred links: 1 amine or outer side, 2 acyl side, 3 side chain; linkers in the order of their positions; H or OH if unused. Positions of bridges follow the written chain, without caps; N, C: chain ends. Non-standard residues stand in square brackets, D forms with d. Residues, ends and D or L forms follow the SMILES beside them. *: point of attachment. DOTA = O=C(O)CN1CCN(CC(=O)O)CCN(CC(=O)*)CCN(CC(=O)O)CC1; mXylylene = c1cc(C[*:1])cc(C[*:2])c1; X2 = O=C(CN1CCC(N[*:1])CC1)[*:2]
quantity: IC50

molecule	reported measurement
CC(C)C[C@@H]1NC(=O)[C@H](Cc2c[nH]c3ccccc23)NC(=O)[C@H](CC(=O)O)NC(=O)[C@H]2CCCN2C(=O)[C@H](CCC(=O)O)NC(=O)[C@@H](NC(=O)[C@H](Cc2ccc(O)cc2)NC(=O)CN2CCC(NC(=O)CN3CCN(CC(=O)O)CCN(CC(=O)O)CCN(CC(=O)O)CC3)CC2)CSCc2cccc(c2)CSC[C@@H](C(N)=O)NC(=O)[C@H](CO)NC(=O)[C@H](Cc2c[nH]c3ccccc23)NC(=O)[C@H]([C@@H](C)O)NC1=O [3BP-3867] ({DOTA}-[X2]YCE[dP]DWLTWSC-NH2; linker 3-12 via mXylylene)	< 10 nM
CC(=O)N[C@H](C(=O)N[C@@H](Cc1ccc(O)cc1)C(=O)N[C@H]1CSCc2cccc(c2)CSC[C@@H](C(N)=O)NC(=O)[C@H](CCC(N)=O)NC(=O)[C@H](Cc2c[nH]c3ccccc23)NC(=O)[C@H]([C@@H](C)O)NC(=O)[C@H](CC(C)C)NC(=O)[C@H](Cc2c[nH]c3ccccc23)NC(=O)[C@H](C)NC(=O)CNC(=O)[C@H](CCC(=O)O)NC1=O)C(C)C [3BP-3053] (Ac-VYCEGAWLTWQC-NH2; linker 3-12 via mXylylene)	10 to 79.4 nM

###

- assay: Extended single-dose toxicity study including safety pharmacology endpoints, i.v. bolus (GLP)
- Assay type: in vivo, beagle dogs
- test context: female, beagle, dog, plasma, iv, 400 ug/kg; females, 400 μg/kg i.v.; read-out: mean AUCtlast at the NOAEL
quantity: AUC(0-t) (ng·h/mL)

smiles input	quantity	unit spec	reported measurement
CC(C)C[C@@H]1NC(=O)[C@H](Cc2cccc(NC(=O)CCCS(N)(=O)=O)c2)NC(=O)[C@H](CC(=O)O)NC(=O)[C@H]2CCCN2C(=O)[C@H](CCC(=O)O)NC(=O)[C@@H](NC(=O)[C@H](CCC(N)=O)NC(=O)CN2CCN(C(=O)CN3CCN(CC(=O)O)CCN(CC(=O)O)CCN(CC(=O)O)CC3)CC2)CSCc2cccc(c2)CSC[C@@H](C(N)=O)NC(=O)[C@H](CO)NC(=O)[C@H](Cc2c[nH]c3ccccc23)NC(=O)[C@H]([C@@H](C)O)NC1=O	AUC(0-t)	ng·h/mL	771

###

- assay: Extended single-dose toxicity study including safety pharmacology endpoints, i.v. bolus (GLP)
- Type: in vivo, beagle dogs
- test context: beagle, dog, plasma, iv, 80 ug/kg; Female; 80 μg/kg single i.v. bolus; mean n = 3; read-out: Vss

smiles input	unit spec	Vd
CC(C)C[C@@H]1NC(=O)[C@H](Cc2cccc(NC(=O)CCCS(N)(=O)=O)c2)NC(=O)[C@H](CC(=O)O)NC(=O)[C@H]2CCCN2C(=O)[C@H](CCC(=O)O)NC(=O)[C@@H](NC(=O)[C@H](CCC(N)=O)NC(=O)CN2CCN(C(=O)CN3CCN(CC(=O)O)CCN(CC(=O)O)CCN(CC(=O)O)CC3)CC2)CSCc2cccc(c2)CSC[C@@H](C(N)=O)NC(=O)[C@H](CO)NC(=O)[C@H](Cc2c[nH]c3ccccc23)NC(=O)[C@H]([C@@H](C)O)NC1=O	L/kg	0.21

###

- subject of test: human carbonic anhydrase IX (hCAIX-Fc) (Homo sapiens)
- Construct: purchased SinoBliological (Sino Biological) 10107-H02H
- assay: Surface plasmon resonance assay with hCAIX-Fc
- Format: binding
- test context: SPR, hCAIX-Fc captured, 25° C.; read-out: pKD category (activity) (converted)
Starred links: 1 amine or outer side, 2 acyl side, 3 side chain; linkers in the order of their positions; H or OH if unused. Positions of bridges follow the written chain, without caps; N, C: chain ends. Non-standard residues stand in square brackets, D forms with d. Residues, ends and D or L forms follow the SMILES beside them. *: point of attachment. DOTA = O=C(O)CN1CCN(CC(=O)O)CCN(CC(=O)*)CCN(CC(=O)O)CC1; mXylylene = c1cc(C[*:1])cc(C[*:2])c1; 4Amb = NCc1ccc(C(=O)O)cc1; Dap = NC[C@H](N)C(=O)O
Property: Kd; scope: individual compounds

compound	Kd
CC(C)C[C@@H]1NC(=O)[C@H](Cc2c[nH]c3ccccc23)NC(=O)[C@H](CC(=O)O)NC(=O)[C@H]2CCCN2C(=O)[C@H](CCC(=O)O)NC(=O)[C@@H]2CSCc3cccc(c3)CSC[C@@H](C(N)=O)NC(=O)[C@H](CNC(=O)C[C@H](NC(=O)CN3CCN(CC(=O)O)CCN(CC(=O)O)CCN(CC(=O)O)CC3)C(=O)N2)NC(=O)[C@H](Cc2c[nH]c3ccccc23)NC(=O)[C@H]([C@@H](C)O)NC1=O [3BP-4253] ({DOTA}-DCE[dP]DWLTW[Dap]C-NH2; lactam 1-10; linker 2-11 via mXylylene)	< 0.01 µM
CC(C)C[C@@H]1NC(=O)[C@H](Cc2c[nH]c3ccccc23)NC(=O)[C@H](CC(=O)O)NC(=O)[C@H]2CCCN2C(=O)[C@H](CCC(=O)O)NC(=O)[C@@H]2CSCc3cccc(c3)CSC[C@@H](C(N)=O)NC(=O)[C@H](CNC(=O)C[C@H](NC(=O)c3ccc(CNC(=O)CN4CCN(CC(=O)O)CCN(CC(=O)O)CCN(CC(=O)O)CC4)cc3)C(=O)N2)NC(=O)[C@H](Cc2c[nH]c3ccccc23)NC(=O)[C@H]([C@@H](C)O)NC1=O [3BP-4261] ({DOTA-4Amb}-DCE[dP]DWLTW[Dap]C-NH2; lactam 1-10; linker 2-11 via mXylylene)	< 0.01 µM

###

- assay: Extended single-dose toxicity study including safety pharmacology endpoints, i.v. bolus (GLP)
- Assay type: in vivo, beagle dogs
- test context: beagle, dog, plasma, iv, 16 ug/kg; Male; 16 μg/kg single i.v. bolus; mean n = 3; read-out: AUClast

compound	AUC(0-t) (ng·h/mL)
CC(C)C[C@@H]1NC(=O)[C@H](Cc2cccc(NC(=O)CCCS(N)(=O)=O)c2)NC(=O)[C@H](CC(=O)O)NC(=O)[C@H]2CCCN2C(=O)[C@H](CCC(=O)O)NC(=O)[C@@H](NC(=O)[C@H](CCC(N)=O)NC(=O)CN2CCN(C(=O)CN3CCN(CC(=O)O)CCN(CC(=O)O)CCN(CC(=O)O)CC3)CC2)CSCc2cccc(c2)CSC[C@@H](C(N)=O)NC(=O)[C@H](CO)NC(=O)[C@H](Cc2c[nH]c3ccccc23)NC(=O)[C@H]([C@@H](C)O)NC1=O [DPI-4452]	14

###

- subject of test: CAIX-expressing human HT-29 colorectal cancer cells (Homo sapiens, UniProt Q16790)
- Construct: CAIX-expressing human HT-29 colorectal cancer cells; host or cells: HT-29 human colorectal cancer cells
- assay: FACS binding assay (IC50 determination, competition with tracer 3BP-2776 or 3BP-4149)
- test context: FACS competition on HT-29 cells, Tracer ID 3BP-2776 (10 nM, biotin-labeled), 4° C., 1 hour; read-out: pIC50 category (activity) (converted)
Starred links: 1 amine or outer side, 2 acyl side, 3 side chain; linkers in the order of their positions; H or OH if unused. Positions of bridges follow the written chain, without caps; N, C: chain ends. Non-standard residues stand in square brackets, D forms with d. Residues, ends and D or L forms follow the SMILES beside them. *: point of attachment. NH(CH2)5NHDOTA = O=C(O)CN1CCN(CC(=O)O)CCN(CC(=O)NCCCCCN*)CCN(CC(=O)O)CC1; mXylylene = c1cc(C[*:1])cc(C[*:2])c1; Hydrocinnamoyl = O=C(CCc1ccccc1)*

molecule	subject of test	IC50
CC(C)C[C@@H]1NC(=O)[C@H](Cc2c[nH]c3ccccc23)NC(=O)[C@H](CC(=O)O)NC(=O)CNC(=O)[C@H](CCC(=O)O)NC(=O)[C@@H](NC(=O)[C@H](Cc2ccc(O)cc2)NC(=O)[C@@H](NC(=O)CCc2ccccc2)C(C)C)CSCc2cccc(c2)CSC[C@@H](C(N)=O)NC(=O)[C@H](CCC(N)=O)NC(=O)[C@H](Cc2c[nH]c3ccccc23)NC(=O)[C@H]([C@@H](C)O)NC1=O [3BP-3110] (Hydrocinnamoyl-VYCEGDWLTWQC-NH2; linker 3-12 via mXylylene)	CAIX-expressing human HT-29 colorectal cancer cells (Homo sapiens, UniProt Q16790)	< 10 nM
CC(=O)N[C@H](C(=O)N[C@@H](Cc1ccc(O)cc1)C(=O)N[C@H]1CSCc2cccc(c2)CSC[C@@H](C(=O)NCCCCCNC(=O)CN2CCN(CC(=O)O)CCN(CC(=O)O)CCN(CC(=O)O)CC2)NC(=O)[C@H](C)NC(=O)[C@H](Cc2c[nH]c3ccccc23)NC(=O)[C@H]([C@@H](C)O)NC(=O)[C@H](CC(C)C)NC(=O)[C@H](Cc2c[nH]c3ccccc23)NC(=O)[C@H](CC(=O)O)NC(=O)[C@H]2CCCN2C(=O)[C@H](CCC(=O)O)NC1=O)C(C)C [3BP-3434] (Ac-VYCE[dP]DWLTWAC-{NH(CH2)5NHDOTA}; linker 3-12 via mXylylene)	CAIX-expressing human HT-29 colorectal cancer cells (Homo sapiens, UniProt Q16790)	< 10 nM

Cited source: patent US20250339569A1
